Attribute: ED50 SEPTTR-184 1DP
Test system: Zymoseptoria tritici (SEPTTR-184)
Assay: Efficacy of target gene fragments (MgCytB dsRNA tiles) on wheat plants, SEPTTR-184
Format: in vivo
Conditions: 1DP (preventative)

Molecule | ED50 SEPTTR-184 1DP
MgCytB-T6: 258 bp dsRNA of Zymoseptoria CytB region T6, location 775-1032 (SEQ ID NO:9) (nucleic acid, listed as Zymoseptoria tritici, complementary strand of dsRNA) GTTATGGCTAACCCTATGCAAACTCCACCTGCTATAGTGCCTGAATGATATTTATTACCTTTCTACGCTATACTAAGATCAATACCTAACAAACTATTAGGTGTGATCGCAATGTTTTCTGCTATATTGATTATAATGATAATGCCAATTACCGATTTAGGTAGAAGTAGAGGATTACAGTTTAGACCTTTAAGCAAGATCACATTTTACATATTTGTTGCTAACTTCTTAGTATTAATGCAATTAGGTGCTAATCAC | <3.125 ppm
MgCytB-T7: 221 bp dsRNA of Zymoseptoria CytB region T7, location 947-1167 (SEQ ID NO:10) (nucleic acid, listed as Zymoseptoria tritici, complementary strand of dsRNA) GATTACAGTTTAGACCTTTAAGCAAGATCACATTTTACATATTTGTTGCTAACTTCTTAGTATTAATGCAATTAGGTGCTAATCACGTTGAGTCACCATTTATAGAATTTGGGCAAATTAGTACAGTACTGTACTTTTCACATTTCTTAATCATAGTGCCTCTAGTAAGCTTAATCGAGAATACTTTAGTGGATATGCACTTAAACAACACAATAACGTAA | <3.125 ppm
